experimentalSystem: T1, recombinant human IL-23R/Fc chimera (R&D Systems) (human, UniProt Q5VWK5 24-355)
T1 construct: Bought; also called rhIL23RFc
T1 sequence (looked up): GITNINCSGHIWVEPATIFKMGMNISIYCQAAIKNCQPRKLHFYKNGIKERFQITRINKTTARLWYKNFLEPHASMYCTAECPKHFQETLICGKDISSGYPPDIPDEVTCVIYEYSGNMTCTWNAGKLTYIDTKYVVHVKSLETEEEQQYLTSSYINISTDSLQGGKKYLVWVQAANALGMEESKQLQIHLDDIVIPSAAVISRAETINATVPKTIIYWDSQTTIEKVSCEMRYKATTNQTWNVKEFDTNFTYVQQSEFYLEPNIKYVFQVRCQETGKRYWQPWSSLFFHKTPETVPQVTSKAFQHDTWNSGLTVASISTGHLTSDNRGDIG
testSummary: SPR
Reported Ka is given for each of the following binders.
measurementKind: Ka

[[record]]
binder = "105-08-1A4 ATRIMER complex (designed binder) EPPTQKPKKIVNAKKDVVNTKMFEELKSRLDTLAQEVALLKEQQALQTVCLKGTKVHMKCFLAFTQTKTFHEASEDCISRGGTLSTPQTGSENDALYEYLRQSVGNEAEIWLGLNGSAVTNTWVDMTGARIAYKNWETEITAQPDGGFGYFGENCAVLSGAANGKWFDKRCRDQLPYICQFGIV"
observedresult = "8e+08 M⁻¹"

[[record]]
binder = "056-53.H7H ATRIMER complex (designed binder, Homotrimer of this chain (ATRIMER complex)., not shown: A possible extra N-terminal Ser from the ompA junction is left out) EPPTQKPKKIVNAKKDVVNTKMFEELKSRLDTLAQEVALLKEQQALQTVCLKGTKVHMKCFLAFTQTKTFHEASEDCISRGGTLSTPQTGSENDALYEYLRQSVGNEAEIWLGLNGSSVSDVWVDMTGARIAYKNWETEITAQPDGGFGYFGENCAVLSGAANGKWFDKRCRDQLPYICQFGIV"
observedresult = "6.65e+08 M⁻¹"

[[record]]
binder = "056-40.A3C ATRIMER complex (designed binder, Homotrimer of this chain (ATRIMER complex)., not shown: A possible extra N-terminal Ser from the ompA junction is left out) EPPTQKPKKIVNAKKDVVNTKMFEELKSRLDTLAQEVALLKEQQALQTVCLKGTKVHMKCFLAFTQTKTFHEASEDCISRGGTLSTPQTGSENDALYEYLRQSVGNEAEIWLGLNGSATTATWVDMTGARIAYKNWETEITAQPDGGFGYFGENCAVLSGAANGKWFDKRCRDQLPYICQFGIV"
observedresult = "5.7e+08 M⁻¹"

